- Test System: T1, mIL2-his (mouse, UniProt P04351 21-169)
- T1 construct: also called wild-type mouse IL-2 (with a his-tag); not shown: his-tag
- T1 sequence (looked up): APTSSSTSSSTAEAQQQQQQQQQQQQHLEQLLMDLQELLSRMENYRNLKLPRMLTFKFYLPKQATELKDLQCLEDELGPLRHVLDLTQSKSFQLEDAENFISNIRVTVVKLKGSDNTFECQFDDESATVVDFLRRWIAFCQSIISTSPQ
- Protocol Text: ELISA, antibody captured by anti-human IgG, mIL2-his titrated
Endpoint: EC50 (µg/mL)
Numbers only; they are read as µg/mL.

Fill in: EC50 of hS4B6-H6K7 (antibody, V domains shown, full antibody) VH: QVQLVQSGAEVKKPGATVKISCKVSGDTITAYYLHWVRQAPGQGLEWIGRIDPEDDSTKYAENFKNRVTITADTSTNTAYMELSSLRSEDTAVYYCTTVTFYYSRELRWFAYWGQGTLVTVSS VL: DIQMTQSPSSLSASVGDRVTITCQASQDIGNYLSWYQQKPGKAPKLLIHSATSLADGVPSRFSGSGSGTDFTLTISSLQPEDFATYYCLQHYSTPYTFGGGTKVEIK is ___ 0.0357
